Target: T1, soluble FGFR4 receptor protein (human, UniProt P22455 144-369)
T1 sequence: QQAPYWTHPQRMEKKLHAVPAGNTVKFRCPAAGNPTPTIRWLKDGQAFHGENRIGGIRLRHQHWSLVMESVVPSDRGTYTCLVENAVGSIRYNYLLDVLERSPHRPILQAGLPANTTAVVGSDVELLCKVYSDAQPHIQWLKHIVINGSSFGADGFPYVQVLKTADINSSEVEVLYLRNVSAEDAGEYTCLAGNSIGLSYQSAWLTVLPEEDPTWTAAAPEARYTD
Test: BLI Octet RED96, antibody on anti-hIgG Fc tip
measuredAttribute: kon (M⁻¹ s⁻¹)
Response body: numeric value in M⁻¹ s⁻¹, unit text excluded.

{"binder": "Vk3 combined with the VH of Ab15 (antibody, V domains shown, captured on anti-human IgG Fc tips) VH: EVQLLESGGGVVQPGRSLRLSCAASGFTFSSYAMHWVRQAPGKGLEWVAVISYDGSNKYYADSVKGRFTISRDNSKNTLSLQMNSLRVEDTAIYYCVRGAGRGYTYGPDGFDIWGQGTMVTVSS VL: DIVMTQTPLSLSVTPGQPASISCTSSRSLLHSDGKTYVYWYLQKSGQPPQLLIYELSNRFSGVPDRFSGSGSRTDFTLKISRVEAEDVGVYYCMQYIEAPLTFGGGTKVEIK", "unitsSymbol": "M⁻¹ s⁻¹", "measuredNumber": 126000}
{"binder": "Ab60 (antibody, human IgG2, kappa, V domains shown, format in the assays not spelled out) VH: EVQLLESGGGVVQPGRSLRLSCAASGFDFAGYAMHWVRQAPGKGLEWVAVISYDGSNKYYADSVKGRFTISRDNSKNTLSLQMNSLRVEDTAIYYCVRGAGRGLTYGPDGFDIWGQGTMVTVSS VL: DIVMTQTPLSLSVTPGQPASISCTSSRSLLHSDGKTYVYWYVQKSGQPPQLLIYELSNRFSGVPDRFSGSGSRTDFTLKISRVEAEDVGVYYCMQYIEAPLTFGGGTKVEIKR", "unitsSymbol": "M⁻¹ s⁻¹", "measuredNumber": 117000}
{"binder": "Vk9 combined with the VH of Ab15 (antibody, V domains shown, captured on anti-human IgG Fc tips) VH: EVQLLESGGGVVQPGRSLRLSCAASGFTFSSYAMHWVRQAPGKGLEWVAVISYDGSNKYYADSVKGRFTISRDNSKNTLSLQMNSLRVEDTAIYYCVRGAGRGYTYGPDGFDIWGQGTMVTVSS VL: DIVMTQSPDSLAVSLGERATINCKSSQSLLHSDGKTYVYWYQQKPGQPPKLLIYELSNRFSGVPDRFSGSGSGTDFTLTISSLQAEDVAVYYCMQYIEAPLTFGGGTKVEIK", "unitsSymbol": "M⁻¹ s⁻¹", "measuredNumber": 142000}
{"binder": "Vk1 combined with the VH of Ab15 (antibody, V domains shown, captured on anti-human IgG Fc tips) VH: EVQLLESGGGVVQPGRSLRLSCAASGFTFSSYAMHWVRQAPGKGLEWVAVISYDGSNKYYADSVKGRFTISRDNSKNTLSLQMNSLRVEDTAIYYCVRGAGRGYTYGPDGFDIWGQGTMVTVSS VL: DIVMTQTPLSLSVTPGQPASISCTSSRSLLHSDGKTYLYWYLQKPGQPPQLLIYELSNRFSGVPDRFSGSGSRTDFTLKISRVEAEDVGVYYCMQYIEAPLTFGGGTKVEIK", "unitsSymbol": "M⁻¹ s⁻¹", "measuredNumber": 120000}
{"binder": "Vk6 combined with the VH of Ab15 (antibody, V domains shown, captured on anti-human IgG Fc tips) VH: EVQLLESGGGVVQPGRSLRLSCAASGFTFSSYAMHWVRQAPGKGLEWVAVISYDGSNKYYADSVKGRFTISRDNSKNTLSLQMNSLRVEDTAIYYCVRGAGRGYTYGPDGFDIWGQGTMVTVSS VL: DIVMTQTPLSLSVTPGQPASISCKSSQSLLHSDGKTYLYWYLQKPGQPPQLLIYELSNRFSGVPDRFSGSGSGTDFTLKISRVEAEDVGVYYCMQYIEAPLTFGGGTKVEIK", "unitsSymbol": "M⁻¹ s⁻¹", "measuredNumber": 120000}

Read the next record carefully.
Ask | Record request: kon value, item Vh2 combined with the VL of Ab15 (antibody, V domains shown, captured on anti-human IgG Fc tips) VH: EVQLVESGGGVVQPGRSLRLSCAASGFTFSSYAMHWVRQAPGKGLEWVAVISYDGSNKYYADSVKGRFTISRDNSKNTLYLQMNSLRAEDTAVYYCARGAGRGYTYGPDGFDIWGQGTMVTVSS VL: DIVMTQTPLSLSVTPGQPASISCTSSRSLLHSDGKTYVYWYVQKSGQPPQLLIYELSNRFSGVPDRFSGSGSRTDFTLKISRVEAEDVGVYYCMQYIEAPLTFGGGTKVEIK
Reply | 173000
